Where do these numbers come from? They come from patent US20170022281A1.

Target System: T1, human PRLR (Biacore antigen) (human, UniProt P16471 25-234, limits assumed)
T1 construct: The construct injected over captured antibody is not described (a soluble form is likely); also called huPRLR
T1 sequence: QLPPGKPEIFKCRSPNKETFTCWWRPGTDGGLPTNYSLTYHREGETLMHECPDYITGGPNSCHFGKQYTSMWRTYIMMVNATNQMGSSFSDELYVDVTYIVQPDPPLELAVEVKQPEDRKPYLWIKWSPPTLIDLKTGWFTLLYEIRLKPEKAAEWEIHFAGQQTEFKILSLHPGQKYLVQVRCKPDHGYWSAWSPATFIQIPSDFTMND
Assay Text: SPR Biacore
Think of 600000 M⁻¹ s⁻¹ as a floor: if kon stands on it or above, it is rule met; beneath it, rule not met.

Consider the worked cases shown below.
Confirm if kon reported for the binder Ab17 (antibody, human IgG1, kappa, V domains shown, humanized from Ab6; G1; also called Ab1 HC.1 and Ab1 LC.2a) VH: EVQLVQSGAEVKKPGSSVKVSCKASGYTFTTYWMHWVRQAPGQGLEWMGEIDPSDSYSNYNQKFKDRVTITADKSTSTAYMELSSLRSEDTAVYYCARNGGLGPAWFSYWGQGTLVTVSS VL: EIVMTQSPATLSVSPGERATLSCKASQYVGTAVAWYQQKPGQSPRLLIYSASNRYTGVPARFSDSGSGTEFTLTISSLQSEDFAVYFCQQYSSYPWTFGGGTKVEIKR is 600000 M⁻¹ s⁻¹ or above.
rule met

Thanks! And LFA102 (antibody, human IgG1, kappa, V domains shown, humanized IgG1 kappa comparator (WO 2008022295)) VH: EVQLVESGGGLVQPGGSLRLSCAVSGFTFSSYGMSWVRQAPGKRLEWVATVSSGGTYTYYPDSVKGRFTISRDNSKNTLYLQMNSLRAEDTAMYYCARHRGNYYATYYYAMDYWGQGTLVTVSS VL: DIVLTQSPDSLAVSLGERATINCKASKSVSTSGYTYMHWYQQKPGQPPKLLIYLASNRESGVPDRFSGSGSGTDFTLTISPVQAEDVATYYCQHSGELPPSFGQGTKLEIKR ?
rule not met

Thanks! And Ab15 (antibody, human IgG1, kappa, V domains shown, humanized from Ab6; G1; also called Ab1 HC.1 and Ab1 LC.1a) VH: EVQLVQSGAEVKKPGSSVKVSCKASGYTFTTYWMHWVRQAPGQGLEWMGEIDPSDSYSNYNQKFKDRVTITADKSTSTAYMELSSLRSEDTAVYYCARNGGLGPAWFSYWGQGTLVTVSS VL: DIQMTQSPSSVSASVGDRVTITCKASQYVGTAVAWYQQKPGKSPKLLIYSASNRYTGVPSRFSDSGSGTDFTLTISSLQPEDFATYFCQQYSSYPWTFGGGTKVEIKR ?
rule met

Thanks! And Ab8 (antibody, V domains shown, murine monoclonal, isotype G2b; also called murine Ab8) VH: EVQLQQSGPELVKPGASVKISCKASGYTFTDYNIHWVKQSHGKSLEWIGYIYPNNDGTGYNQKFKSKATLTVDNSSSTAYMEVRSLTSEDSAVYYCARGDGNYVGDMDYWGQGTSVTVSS VL: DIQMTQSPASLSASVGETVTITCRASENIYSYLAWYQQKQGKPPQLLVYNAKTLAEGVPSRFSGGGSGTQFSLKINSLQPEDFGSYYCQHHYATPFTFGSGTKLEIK ?
rule not met

Now, please, on to the next binder.
Confirm if kon reported for the binder Ab10 (antibody, V domains shown, murine monoclonal, isotype G2a; also called murine Ab10) VH: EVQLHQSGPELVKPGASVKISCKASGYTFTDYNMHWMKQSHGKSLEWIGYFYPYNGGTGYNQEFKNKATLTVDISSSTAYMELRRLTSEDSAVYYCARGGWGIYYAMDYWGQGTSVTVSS VL: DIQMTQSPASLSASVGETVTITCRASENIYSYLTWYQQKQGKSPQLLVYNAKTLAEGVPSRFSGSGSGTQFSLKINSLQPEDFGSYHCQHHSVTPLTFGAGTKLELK is 600000 M⁻¹ s⁻¹ or above.
rule not met
